# test.target: full length human recombinant glucocorticoid receptor (Homo sapiens)
# Construct: It contains some partially purified full length human recombinant glucocorticoid receptor
# Sequence (P04150 1-777): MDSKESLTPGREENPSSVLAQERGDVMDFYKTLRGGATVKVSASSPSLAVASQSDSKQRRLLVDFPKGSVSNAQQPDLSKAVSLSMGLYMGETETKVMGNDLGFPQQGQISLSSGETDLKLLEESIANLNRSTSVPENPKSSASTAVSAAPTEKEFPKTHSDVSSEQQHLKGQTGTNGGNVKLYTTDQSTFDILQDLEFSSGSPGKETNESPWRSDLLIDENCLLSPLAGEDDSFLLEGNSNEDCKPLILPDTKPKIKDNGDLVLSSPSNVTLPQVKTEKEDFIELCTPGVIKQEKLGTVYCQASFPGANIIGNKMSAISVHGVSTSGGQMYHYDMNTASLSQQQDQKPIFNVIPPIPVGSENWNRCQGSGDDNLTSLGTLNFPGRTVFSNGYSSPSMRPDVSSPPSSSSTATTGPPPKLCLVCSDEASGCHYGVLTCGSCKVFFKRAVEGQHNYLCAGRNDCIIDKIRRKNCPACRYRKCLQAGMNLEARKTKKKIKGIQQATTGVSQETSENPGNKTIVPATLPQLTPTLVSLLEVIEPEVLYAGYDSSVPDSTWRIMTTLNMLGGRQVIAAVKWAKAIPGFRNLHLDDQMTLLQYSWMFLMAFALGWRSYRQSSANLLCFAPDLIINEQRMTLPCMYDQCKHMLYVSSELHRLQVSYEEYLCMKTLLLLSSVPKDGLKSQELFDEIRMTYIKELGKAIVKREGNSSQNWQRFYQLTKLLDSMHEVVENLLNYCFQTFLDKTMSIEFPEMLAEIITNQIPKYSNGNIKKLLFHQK
# method.summary: Glucocorticoid Receptor Binding Assay (Glucocorticoid Receptor Competitor Assay far red kit, fluorescence polarization)
# stated.conditions: competition with fluorescent GR ligand Fluormone GS Far Red, 3 hours at 22° C., pH 7.4; Ki calculated from IC50 by Cheng-Prusoff
pKi: −log10 of the molar value.
experimental.readout: pKi

# molecule, pKi
records = [
    ("CCOC(=O)C(C)(C)Oc1ccc([C@@H](C)[C@@](O)(c2ccc3c(c2)N(C)C(=O)CO3)C(F)(F)F)c(Cl)c1 (racemic) [Example 206]", 8.21),
    ("C[C@H](c1ccc(C(=O)NCC(=O)OC(C)(C)C)cc1Cl)[C@@](O)(c1ccc2oc(=O)n(C)c2c1)C(F)(F)F (stereo in doubt) [Example 231]", 8.16),
    ("C[C@@H](c1ccc(-c2ccc(CC(=O)O)cc2)cc1Cl)[C@](O)(c1ccc2c(c1)N(C)C(=O)CO2)C(F)(F)F (relative stereo) [Example 37]", 8.18),
]

----------
# test.target: full length human recombinant glucocorticoid receptor (Homo sapiens, UniProt P04150)
# Construct: It contains some partially purified full length human recombinant glucocorticoid receptor
# Sequence (P04150 1-777): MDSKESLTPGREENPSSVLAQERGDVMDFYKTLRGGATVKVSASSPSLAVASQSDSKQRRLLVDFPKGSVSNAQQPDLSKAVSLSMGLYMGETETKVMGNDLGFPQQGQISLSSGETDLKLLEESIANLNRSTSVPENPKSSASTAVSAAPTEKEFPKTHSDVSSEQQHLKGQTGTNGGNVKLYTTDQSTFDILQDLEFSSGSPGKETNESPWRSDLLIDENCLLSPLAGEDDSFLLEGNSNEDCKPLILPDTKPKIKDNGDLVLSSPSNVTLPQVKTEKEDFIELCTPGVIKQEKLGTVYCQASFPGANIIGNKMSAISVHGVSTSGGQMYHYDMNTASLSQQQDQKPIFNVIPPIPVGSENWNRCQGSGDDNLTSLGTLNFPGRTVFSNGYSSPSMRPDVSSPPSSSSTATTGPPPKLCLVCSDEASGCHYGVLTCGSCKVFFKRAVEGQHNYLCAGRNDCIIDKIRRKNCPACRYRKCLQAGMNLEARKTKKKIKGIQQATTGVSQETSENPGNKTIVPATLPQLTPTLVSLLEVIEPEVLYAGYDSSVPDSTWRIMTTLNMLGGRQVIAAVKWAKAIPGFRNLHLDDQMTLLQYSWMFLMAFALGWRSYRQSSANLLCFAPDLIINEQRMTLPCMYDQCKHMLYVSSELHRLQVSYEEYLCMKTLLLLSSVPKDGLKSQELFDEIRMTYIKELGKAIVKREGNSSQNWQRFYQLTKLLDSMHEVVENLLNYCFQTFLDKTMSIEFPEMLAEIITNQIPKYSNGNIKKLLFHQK
# method.summary: Glucocorticoid Receptor Binding Assay (Glucocorticoid Receptor Competitor Assay far red kit, fluorescence polarization)
# stated.conditions: competition with fluorescent GR ligand Fluormone GS Far Red, 3 hours at 22° C., pH 7.4; Ki calculated from IC50 by Cheng-Prusoff
pKi: −log10 of the molar value.
experimental.readout: pKi

# compound, pKi
rows = [
    ("C[C@H](c1ccc(Oc2ccc(C(=O)O)c(Cl)c2)cc1Cl)[C@@](O)(c1ccc2c(c1)N(C)C(=O)CO2)C(F)(F)F (racemic) [Example 59]", 9.00),
]

I: C[C@H](c1ccc(Oc2cccc(C(=O)O)c2)cc1Cl)[C@@](O)(c1ccc2c(c1)N(C)C(=O)CO2)C(F)(F)F (racemic)
II: C[C@H](c1ccc(-c2ccc(C(=O)O)c(F)c2)cc1Cl)[C@@](O)(c1ccc2c(c1)oc(=O)n2C)C(F)(F)F (relative stereo)
III: C[C@H](c1ccc(Oc2ccc(OCC(=O)O)cc2)cc1Cl)[C@@](O)(c1ccc2c(c1)n(C)c(=O)n2C)C(F)(F)F (stereo in doubt)
Ranking field: pKi; order: falling. Provide the labels, sequenced as the question asks.
III, I, II
(III: 9.52, I: 9.00, II: 6.96)

Source of measurements: patent US8450313B2
